# Test system: NCI-H23 lung
# experiment: NCI-60 one-dose screen, 48 h (100 = growth as untreated, 0 = no growth, -100 = all killed)
# protocol.conditions: 10 µM unless noted
Compounds without any hit were thinned out: in the full panel of roughly 83,000, 20% have a hit.
Label rule met when growth is strictly below 70%; otherwise label rule not met.

Completed entries (count: 3):
O=C1/C(=C/C2=Cc3ccccc3OC2)SC(=S)N1c1ccccc1F: rule not met
O=C(NNc1nc2cc(C(F)(F)F)ccc2n2cccc12)c1cnccn1: rule met
Cn1cc(-c2nnc(N)nc2-c2c[nH]c3ccccc23)c2cccnc21: rule met

Could you now look at the following compound, please?
-- ask Criterion: growth strictly below 70%. Is it met by C=C1CCC2C3(C)COC(c4cccs4)OC3CCC2(C)C1CC(Sc1ccccc1)C1=CCOC1=O (stereo not given) ?
-- reply rule not met

---

# System: SNB-19 CNS
# experiment: NCI-60 one-dose screen, 48 h (100 = growth as untreated, 0 = no growth, -100 = all killed)
# protocol.conditions: 10 µM unless noted
The panel holds about 83,000 compounds, 20% with a hit somewhere; the sample as a whole holds those more often.
property.name: growth (%)
Answers are plain numbers, in %.

Cn1cc(-c2cc3nc(-c4cn(C)c5ncc(Br)cc45)cc(N)n3n2)c2ccccc21: -27
COc1cc(-c2ccc(/C=N/NC(=O)c3[nH]c4ccc(Br)cc4c3-c3ccccc3)s2)cc(OC)c1OC: 63.9
Cn1cc(-c2nc(N)nnc2-c2c[nH]c3ccc(Br)cc23)c2cc(Br)cnc21: 33.9
COc1ccc(C(=O)/C=C/c2cccc3ccccc23)cc1S(N)(=O)=O: 10.5
C/C(=N\N=C1/C(=O)Nc2ccc(Cl)cc21)c1ccc2c(c1)Nc1ccccc1S2: 18.7

List reported growth for each of these compounds:
1. COc1ccc(-c2ccc(SCC(=O)NCCc3ccc(S(N)(=O)=O)cc3)nn2)cc1
2. C=C1CC[C@@H]2[C@]3(C)COC(c4cn[nH]c4-c4cccc(Cl)c4)O[C@@H]3CC[C@@]2(C)[C@@H]1C/C=C1/C(=O)OCC1O (some centres not stated)

-- reply
77.4
5.54

---

# System: MOLT-4 leukemia
# experiment: NCI-60 one-dose screen, 48 h
# protocol.conditions: 10 µM unless noted
The panel holds about 83,000 compounds, 20% with a hit somewhere; the sample as a whole holds those more often. Calls of active or inactive are those of the source. How the source made its calls: active means growth percent below 10; inactive means the rest.
I would appreciate it if you answered using one of these outcomes: active, inactive

O=C1NC(=O)/C(=C/c2ccccc2OCc2cc3ccccc3nc2Cl)S1: inactive

-- ask # outcome recorded in this test, key = "CNC(=O)c1cc(Oc2ccc3nc(NC(=O)Nc4cccc(OC(F)(F)F)c4)sc3c2)ccn1"
-- reply inactive

-- ask # outcome recorded in this test, key = CCOC(=O)C1=C(N)N(c2ccccc2)C2=C(C(=O)CC(C)(C)C2)C1c1ccc(Cl)cc1Cl (stereo unspecified)
-- reply active

-- ask # outcome recorded in this test, key = "Cn1cc(-c2nnc(N)nc2-c2c[nH]c3ccc(F)cc23)c2cccnc21"
-- reply inactive

-- ask # outcome recorded in this test, key = "CN(C)CCCNC(=O)c1cc(NC(=O)c2cc(NC(=O)c3ccc(C#Cc4ccccc4)cc3)cn2C)cn1C"
-- reply active

-- ask # outcome recorded in this test, key = COc1cc(C2CC(c3cc(OC)c(OC)c(OC)c3)=NN2C(C)=O)ccc1OCc1ccccc1 (stereo unspecified)
-- reply active

---

# Tested on: SNB-19 CNS
# experiment: NCI-60 one-dose screen, 48 h (100 = growth as untreated, 0 = no growth, -100 = all killed)
# protocol.conditions: 10 µM unless noted
Compounds without any hit were thinned out: in the full panel of roughly 83,000, 20% have a hit.
property.name: growth (%)
One number for each entry, in %.

O=c1oc2ccccc2cc1-c1csc(N2N=C(c3ccccc3)CC2c2ccc(N3CCOCC3)cc2)n1 (stereo not drawn): 116
Cc1cccc(Nc2nc3ccccc3nc2/C=C/c2ccc(F)cc2)c1: 92.8

# growth of "O=C(N=Nc1c(O)[nH]c2ccc([N+](=O)[O-])cc12)c1ccc2nc(-c3ccccc3)[nH]c2c1" = 43.6

---

# System: MDA-MB-435 melanoma
# experiment: NCI-60 one-dose screen, 48 h (100 = growth as untreated, 0 = no growth, -100 = all killed)
# protocol.conditions: 10 µM unless noted
The panel holds about 83,000 compounds, 20% with a hit somewhere; the sample as a whole holds those more often.
property.name: growth (%)
Give bare numbers, in %.

Some solved cases for reference:
O=C(Cn1c(/C=C/c2cccc([N+](=O)[O-])c2)nc2ccccc2c1=O)Nc1ccccc1: 94.3
CSc1ccc(C(=O)Nc2ccc3nnn(/C(C#N)=C/c4ccccn4)c3c2)cc1: -20.9

List reported growth for each of these compounds:
1. COc1ccc(NC(=O)Cn2c3c(sc2=O)[C@H]2[C@@H](O)[C@@H](O)[C@H](O)[C@@H]2CS3)cc1
2. COc1cc(OC)cc(-c2cc3ccc(N(C)C)cc3c(=O)[nH]2)c1

-- reply
101
5.03

---

# Test system: 786-0 renal
# experiment: NCI-60 one-dose screen, 48 h (100 = growth as untreated, 0 = no growth, -100 = all killed)
# protocol.conditions: 10 µM unless noted
# Experimental: Cells are grown in 96 well plates and exposed to the test compound for 48 hours. Compounds are tested at a single concentration, which is 10^-5 M for most compounds. The reported endpoint is percent growth (GI% or GIPRCNT), where numbers from 0 - 100% represent growth inhibition, and numbers from -100% - 0 represent cell death. For example, a value of 40 represents 60% growth inhibition. A value of 0 means no net growth occurred over the course of the experiment. […]
The panel holds about 83,000 compounds, 20% with a hit somewhere; the sample as a whole holds those more often.
So basically, the class depends on measured growth, and the ranges are low group = under 10%, middle group = from 10% up to 70%, high group = 70% and over

O=C1C(=Nc2ccc(F)c(Cl)c2)c2cccc3cccc1c23: high group

-- ask Exercise: read the entry CCCCCCCS(=O)(=O)N1CCCC(C(=O)Nc2nc3ccc(NC(=O)c4ccc(F)c(OC)c4F)cc3s2)C1 (stereo not drawn) and state which class it falls under.
-- reply middle group

-- ask Exercise: read the entry "O=c1c2ccccc2nc(-c2ccccc2)n1/N=C/c1ccc2ccccc2c1" and state which class it falls under.
-- reply middle group

-- ask Exercise: read the entry "COc1ccc(/C=C/c2nc3ccccc3c(=O)n2CC(=O)Nc2ccc(Cl)cc2)cc1" and state which class it falls under.
-- reply middle group

---

# Test system: HT29 colon
# experiment: NCI-60 one-dose screen, 48 h
# protocol.conditions: 10 µM unless noted
This is part of a sample that, as a whole, favours compounds with a hit. Of some 83,000 tested, about 20% had one in any assay. The source made the active and inactive calls. Rule for the calls: active = growth percent below 10; inactive = the rest.
I would appreciate it if you answered using one of these outcomes: active, inactive

Completed entries (count: 5):
Cc1cccc(-c2nc(Nc3ccc(C)c(S(N)(=O)=O)c3)c3ccccc3n2)c1: inactive
Cn1cc(-c2cc3nc(-c4cn(C)c5ncc(Br)cc45)cc(N)n3n2)c2cc(Cl)ccc21: active
Clc1ccc(-c2ccc(OCCCN3CCN(c4ccncc4)CC3)cc2)cc1: active
COc1ccc(C(SCCNCc2cc(N(C)C)ccn2)(c2ccccc2)c2ccccc2)cc1: active
COc1cc2oc(-c3cccc(NC(=O)[C@H](CC(N)=O)NC(=O)OC(C)(C)C)c3)cc(=O)c2c(OC)c1OC: inactive

Could you now look at the following molecule, please?
-- ask # outcome recorded in this test, key = "CCN(CC)CCOc1ccc(Nc2ncc3cc(-c4ccc(O)c(C#N)c4)c(=O)n(C)c3n2)cc1"
-- reply active

---

# Test system: U251 CNS
# experiment: NCI-60 one-dose screen, 48 h
# protocol.conditions: 10 µM unless noted
The panel holds about 83,000 compounds, 20% with a hit somewhere; the sample as a whole holds those more often. Calls of active or inactive are those of the source. Rule for the calls: active = growth percent below 10; inactive = the rest.
I would appreciate it if you answered using one of these outcomes: active, inactive

COc1cc(/C=C/C(=O)c2ccccc2)ccc1Oc1nc(Nc2ccc(F)cc2)nc(N(C)C)n1: active

-- ask # outcome recorded in this test, key = Cc1ccc([C@H]2C(C(=O)c3ccc(Cl)cc3)C3(N[C@@H]2c2ccccc2)C(=O)Nc2ccc(Cl)cc23)cc1 (stereo partly specified)
-- reply inactive

-- ask # outcome recorded in this test, key = "NS(=O)(=O)c1ccc(N=Nc2c(O)n(CC(=O)Nc3ccccc3Cl)c3ccccc23)cc1"
-- reply active

-- ask # outcome recorded in this test, key = COc1ccc(NC(=O)[C@H](CO)NC(=O)OC(C)(C)C)cc1C(=O)Nc1cccc(C2CC(=O)c3c(cc(OC)c(OC)c3OC)O2)c1 (stereo partly specified)
-- reply inactive

-- ask # outcome recorded in this test, key = C#CCOc1cc(N(CC)CC)ccc1C(C(=O)NC(C)(C)C)N(C(=O)C1CCc2cc(F)ccc2O1)c1ccc(F)c(Cl)c1 (stereo unspecified)
-- reply inactive

-- ask # outcome recorded in this test, key = "CCCCOc1ccc(NC(=O)c2sc3nc(C)ccc3c2N)cc1"
-- reply active
